Counter-ions that a name gives are not always drawn.
pKi values recorded for human trypsin (Homo sapiens)
Units for pKi: none; it is -log10 of a concentration expressed in mol/L.

Examples from the recorded data:
For N=C(N)c1ccc(OC(=O)c2cc3c(s2)CN(C(=O)N[C@@H](CC(=O)O)C(=O)O)CC3)c(F)c1 [B-55, trifluoroacetate] on human trypsin (Homo sapiens), measured pKi was 9.62

For CC(C)N(Cc1ccc(C(=O)Oc2ccc(C(=N)N)cc2F)s1)C(=O)N[C@@H](CC(=O)O)C(=O)O [B-47] on human trypsin (Homo sapiens), measured pKi was 9.16

For N=C(N)c1ccc2cc(OC(=O)c3ccc(CN4CCC[C@@H]4C(=O)N[C@@H](CS(=O)(=O)O)C(=O)O)o3)ccc2c1 [A-6] on human trypsin (Homo sapiens), measured pKi was 10.10

For N=C(N)c1ccc(OC(=O)c2ccc(CN3CCC[C@H]3C(=O)N[C@@H](CS(=O)(=O)O)C(=O)O)o2)cc1 [A-10] on human trypsin (Homo sapiens), measured pKi was 9.01

For CC(C)[C@H](C(=O)N[C@@H](CC(=O)O)C(=O)O)N(C)Cc1ccc(C(=O)Oc2ccc(C(=N)N)cc2F)s1 [B-27, bis(trifluoroacetate)] on human trypsin (Homo sapiens), measured pKi was 9.17

---
For C=CCN(CC(=O)N[C@@H](CC(=O)O)C(=O)O)C(=O)CCc1ccc(C(=O)Oc2ccc(C(=N)N)cc2F)s1 [B-56, trifluoroacetate] on human trypsin (Homo sapiens), measured pKi was 9.37

For CC(C)C[C@@H](C(=O)N[C@H](CCC(=O)O)C(=O)O)N(C)Cc1ccc(C(=O)Oc2ccc(C(=N)N)cc2F)s1 [B-36] on human trypsin (Homo sapiens), measured pKi was 9.05

For N=C(N)c1ccc(OC(=O)c2ccc(Cn3cccc3C(=O)O)s2)c(F)c1 [B-42, trifluoroacetate] on human trypsin (Homo sapiens), measured pKi was 9.09

For CC(C)[C@@H](C(=O)N[C@@H](CC(=O)O)C(=O)O)N(C)Cc1ccc(C(=O)Oc2ccc(C(=N)N)cc2F)s1 [B-23] on human trypsin (Homo sapiens), measured pKi was 9.36

For CN(Cc1ccc(C(=O)Oc2ccc(C(=N)N)cc2F)s1)[C@H](Cc1ccccc1)C(=O)N[C@H](CC(=O)O)C(=O)O [B-59, bis(trifluoroacetate)] on human trypsin (Homo sapiens), measured pKi was 8.48

###

Measured Ki values are reported for all entries that follow.
Biological target: recombinant human enteropeptidase (Homo sapiens (Human), UniProt P98073)
Sequence (P98073 whole entry): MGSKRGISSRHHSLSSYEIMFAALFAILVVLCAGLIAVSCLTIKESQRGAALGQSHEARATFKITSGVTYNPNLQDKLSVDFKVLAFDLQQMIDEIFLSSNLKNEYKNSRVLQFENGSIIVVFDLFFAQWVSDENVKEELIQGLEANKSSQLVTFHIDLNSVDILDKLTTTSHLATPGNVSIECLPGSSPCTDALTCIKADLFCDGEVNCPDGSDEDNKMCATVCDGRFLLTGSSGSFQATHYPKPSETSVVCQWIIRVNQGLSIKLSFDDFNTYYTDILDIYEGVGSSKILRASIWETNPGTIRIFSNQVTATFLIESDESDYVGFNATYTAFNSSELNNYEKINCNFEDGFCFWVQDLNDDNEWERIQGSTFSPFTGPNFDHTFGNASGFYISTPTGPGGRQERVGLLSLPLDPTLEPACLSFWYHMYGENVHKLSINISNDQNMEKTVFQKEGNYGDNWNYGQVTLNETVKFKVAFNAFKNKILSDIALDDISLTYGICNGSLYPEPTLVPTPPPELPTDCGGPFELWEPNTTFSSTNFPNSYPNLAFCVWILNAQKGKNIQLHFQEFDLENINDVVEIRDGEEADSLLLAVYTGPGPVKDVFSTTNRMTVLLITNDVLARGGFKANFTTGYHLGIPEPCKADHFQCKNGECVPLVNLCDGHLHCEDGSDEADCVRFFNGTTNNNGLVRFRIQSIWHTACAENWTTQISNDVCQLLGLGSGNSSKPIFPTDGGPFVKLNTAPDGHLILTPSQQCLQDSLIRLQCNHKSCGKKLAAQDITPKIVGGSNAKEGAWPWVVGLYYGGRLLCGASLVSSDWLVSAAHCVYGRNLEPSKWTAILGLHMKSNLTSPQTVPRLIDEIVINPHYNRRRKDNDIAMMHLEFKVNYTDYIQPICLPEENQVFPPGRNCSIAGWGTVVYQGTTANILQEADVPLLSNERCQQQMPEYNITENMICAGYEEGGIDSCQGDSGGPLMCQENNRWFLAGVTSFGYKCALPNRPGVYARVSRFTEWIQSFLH
Test: Measurement of enteropeptidase inhibitory activity
Details: recombinant human enteropeptidase, Gly-Asp-Asp-Asp-Asp-Lys-β-Naphtylamide substrate, Dixon plot
Where a name gives a salt, the structure may show the parent alone.
Hi, when you answer, please include the unit after the number. Thanks!

Examples from the recorded data:
Lab book: Ki of CN(Cc1ccc(C(=O)Oc2ccc(C(=N)N)cc2)o1)C(=O)N[C@@H](CC(=O)O)C(=O)O [A-20] noted as 0.94 nM

Lab book: Ki of C=CCN(CC(=O)N[C@@H](CC(=O)O)C(=O)O)C(=O)CCc1ccc(C(=O)Oc2ccc(C(=N)N)cc2F)s1 [B-56, trifluoroacetate] noted as 0.77 nM

Lab book: Ki of N=C(N)c1ccc(OC(=O)c2ccc(CN3CCC[C@H]3C(=O)N[C@@H](CS(=O)(=O)O)C(=O)O)o2)cc1 [A-10] noted as 0.65 nM

Lab book: Ki of N=C(N)c1ccc(OC(=O)c2ccc(CN3CCC[C@@H]3C(=O)N[C@@H](CS(=O)(=O)O)C(=O)O)s2)c(F)c1 [B-14] noted as 0.24 nM

Lab book: Ki of CC(C)[C@@H](C(=O)N[C@@H](CC(=O)O)C(=O)O)N(C)Cc1ccc(C(=O)Oc2ccc(C(=N)N)cc2F)s1 [B-23] noted as 0.75 nM

---
Lab book: Ki of C=CCN(CC(=O)O)C(=O)[C@@H]1CCCN1Cc1ccc(C(=O)Oc2ccc(C(=N)N)cc2F)s1 [B-11] noted as 0.78 nM

Lab book: Ki of N=C(N)c1ccc(OC(=O)c2ccc(CN3CCC[C@H]3C(=O)N[C@@H](CS(=O)(=O)O)C(=O)O)s2)c(F)c1 [B-10] noted as 0.24 nM

Lab book: Ki of N=C(N)c1ccc(OC(=O)c2ccc(Cn3cccc3C(=O)O)s2)c(F)c1 [B-42, trifluoroacetate] noted as 0.61 nM

###

Target: recombinant human enteropeptidase (Homo sapiens (Human))
Experiment: Measurement of enteropeptidase inhibitory activity
Details: recombinant human enteropeptidase, Gly-Asp-Asp-Asp-Asp-Lys-β-Naphtylamide substrate, Dixon plot
Measured Ki values are reported for all entries that follow.
API: value field is a number in nM; no unit string.

For CC(C)[C@@H](C(=O)N[C@@H](CC(=O)O)C(=O)O)N(C)Cc1ccc(C(=O)Oc2ccc(C(=N)N)cc2)o1 [A-14, bis(trifluoroacetate)] on recombinant human enteropeptidase (Homo sapiens (Human)), measured Ki was 0.56

For N=C(N)c1ccc(OC(=O)c2ccc(CN3CCC[C@@H]3C(=O)N(CCC(=O)O)CC(=O)O)s2)c(F)c1 [B-60, bis(trifluoroacetate)] on recombinant human enteropeptidase (Homo sapiens (Human)), measured Ki was 0.53

For C=CCN(CC(=O)O)C(=O)[C@@H]1CSCN1Cc1ccc(C(=O)Oc2ccc(C(=N)N)cc2F)s1 on recombinant human enteropeptidase (Homo sapiens (Human)), measured Ki was 1

For N=C(N)c1ccc(OC(=O)c2ccc(CN3CCC[C@@H]3C(=O)N[C@@H](CS(=O)(=O)O)C(=O)O)s2)cc1 on recombinant human enteropeptidase (Homo sapiens (Human)), measured Ki was 0.95

---
For N=C(N)c1ccc(OC(=O)c2ccc(CN3CCCC[C@H]3C(=O)N[C@@H](CC(=O)O)C(=O)O)s2)c(F)c1 on recombinant human enteropeptidase (Homo sapiens (Human)), measured Ki was 0.44

For CC(C)C[C@@H](C(=O)N[C@@H](CCC(=O)O)C(=O)O)N(C)Cc1ccc(C(=O)Oc2ccc(C(=N)N)cc2F)s1 on recombinant human enteropeptidase (Homo sapiens (Human)), measured Ki was 0.9

For N=C(N)c1ccc(OC(=O)c2ccc(CNC3(C(=O)N[C@@H](CC(=O)O)C(=O)O)CC3)s2)c(F)c1 [B-37, bis(trifluoroacetate)] on recombinant human enteropeptidase (Homo sapiens (Human)), measured Ki was 1.27

###

Ki values recorded for human trypsin (Homo sapiens)
API: value field is a number in nM; no unit string.

Examples from the recorded data:
Lab book: Ki of N=C(N)c1ccc(OC(=O)c2ccc(CN3CCC[C@@H]3C(=O)N[C@@H](CS(=O)(=O)O)C(=O)O)o2)cc1 noted as 0.24

Lab book: Ki of CC(C)[C@@H](C(=O)N[C@@H](CC(=O)O)C(=O)O)N(C)Cc1ccc(C(=O)Oc2ccc(C(=N)N)cc2)o1 [A-14, bis(trifluoroacetate)] noted as 0.45

---
Lab book: Ki of CC(C)[C@@H](C(=O)N[C@@H](CCC(=O)O)C(=O)O)N(C)Cc1ccc(C(=O)Oc2ccc(C(=N)N)cc2F)s1 noted as 0.38

Lab book: Ki of N=C(N)c1ccc(OC(=O)c2cc3c(s2)CN(CC(=O)O)CC3)c(F)c1 [B-43, bis(trifluoroacetate)] noted as 0.56

###

Target: recombinant human enteropeptidase (Homo sapiens (Human))
Experiment: Measurement of enteropeptidase inhibitory activity
Format: biochemical
Conditions: recombinant human enteropeptidase, Gly-Asp-Asp-Asp-Asp-Lys-β-Naphtylamide substrate, Dixon plot
Measured pKi values are reported for all entries that follow.
Units for pKi: none; it is -log10 of a concentration expressed in mol/L.

For CN(Cc1ccc(C(=O)Oc2ccc(C(=N)N)cc2F)s1)C(=O)N[C@@H](CC(=O)O)C(=O)O on recombinant human enteropeptidase (Homo sapiens (Human)), measured pKi was 9.42

---
For CC(C)[C@H](C(=O)N[C@@H](CC(=O)O)C(=O)O)N(C)Cc1ccc(C(=O)Oc2ccc(C(=N)N)cc2F)s1 [B-27, bis(trifluoroacetate)] on recombinant human enteropeptidase (Homo sapiens (Human)), measured pKi was 9.11

For CN(Cc1ccc(C(=O)Oc2ccc(C(=N)N)cc2F)s1)[C@H](Cc1ccccc1)C(=O)N[C@H](CC(=O)O)C(=O)O [B-59, bis(trifluoroacetate)] on recombinant human enteropeptidase (Homo sapiens (Human)), measured pKi was 9.01

###

Biological target: recombinant human enteropeptidase (Homo sapiens (Human), UniProt P98073)
Assay: Measurement of enteropeptidase inhibitory activity
Settings: recombinant human enteropeptidase, Gly-Asp-Asp-Asp-Asp-Lys-β-Naphtylamide substrate, Dixon plot
result-type: pKi
Units for pKi: none; it is -log10 of a concentration expressed in mol/L.

Lab book: pKi of N=C(N)c1ccc(OC(=O)c2ccc(CN3CCC[C@@H]3C(=O)N[C@@H](CC(=O)O)C(=O)O)s2)c(F)c1 noted as 9.37

Lab book: pKi of N=C(N)c1ccc(OC(=O)c2ccc(CN3CCC[C@@H]3C(=O)N[C@H](CC(=O)O)C(=O)O)s2)c(F)c1 noted as 9.16

Lab book: pKi of N=C(N)c1ccc(OC(=O)c2ccc(CN3CCC[C@@H]3C(=O)N[C@@H](CS(=O)(=O)O)C(=O)O)o2)cc1 noted as 9.09

---
Lab book: pKi of N=C(N)c1ccc2cc(OC(=O)c3ccc(CN4CCC[C@@H]4C(=O)N[C@@H](CS(=O)(=O)O)C(=O)O)o3)ccc2c1 noted as 9.17

Lab book: pKi of CC(C)N(Cc1ccc(C(=O)Oc2ccc(C(=N)N)cc2)o1)C(=O)N[C@@H](CC(=O)O)C(=O)O noted as 9.42
